Some molecules, each annotated with its measured IC50.
Target: human SLC6A19 and TMEM27 (Homo sapiens)
Construct: expressed in transfected cells
Sequence (Q695T7 1-634): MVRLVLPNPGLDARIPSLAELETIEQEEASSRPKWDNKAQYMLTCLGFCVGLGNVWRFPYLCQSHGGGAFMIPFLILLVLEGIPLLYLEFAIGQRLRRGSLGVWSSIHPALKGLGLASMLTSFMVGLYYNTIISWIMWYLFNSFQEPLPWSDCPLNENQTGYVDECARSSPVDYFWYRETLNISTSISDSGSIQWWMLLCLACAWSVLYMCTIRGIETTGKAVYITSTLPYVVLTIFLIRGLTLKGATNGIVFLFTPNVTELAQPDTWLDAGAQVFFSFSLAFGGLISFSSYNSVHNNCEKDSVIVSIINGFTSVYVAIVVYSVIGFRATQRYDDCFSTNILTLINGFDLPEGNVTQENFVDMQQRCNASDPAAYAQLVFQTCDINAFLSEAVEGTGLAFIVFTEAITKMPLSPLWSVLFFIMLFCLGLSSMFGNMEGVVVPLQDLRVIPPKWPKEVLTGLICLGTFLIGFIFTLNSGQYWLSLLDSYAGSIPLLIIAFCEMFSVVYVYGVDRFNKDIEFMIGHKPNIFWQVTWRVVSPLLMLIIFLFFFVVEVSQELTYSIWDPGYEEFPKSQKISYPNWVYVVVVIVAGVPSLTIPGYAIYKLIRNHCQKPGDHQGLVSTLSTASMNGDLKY
Sequence (Q9HBJ8 15-222 partner): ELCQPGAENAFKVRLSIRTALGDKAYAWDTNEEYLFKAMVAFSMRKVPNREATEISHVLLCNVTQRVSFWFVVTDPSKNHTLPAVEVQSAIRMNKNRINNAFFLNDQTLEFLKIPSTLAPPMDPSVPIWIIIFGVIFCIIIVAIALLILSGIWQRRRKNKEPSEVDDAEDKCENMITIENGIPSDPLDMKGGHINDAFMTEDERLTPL
Experiment: Radiolabelled (3H) leucine uptake in CHO cells with doxycycline-inducible expression of human SLC6A19 and TMEM27 (Example B-1)
Type: cell-based
Settings: CHO cells with doxycycline-inducible expression of human SLC6A19 and TMEM27, read-out: SLC6A19_Radioligand Uptake Assay IC50
Respond numerically; units are µM and should not be typed.

>  <Molecule>
CO[C@H](C)C(=O)NCc1cc2cc(Cl)c(OCc3cc(C)no3)cc2[nH]1 [Compound 314]

>  <System under test>
human SLC6A19 and TMEM27 (Homo sapiens)

>  <Readout name>
IC50

>  <Result value>
0.375

$$$$
>  <Molecule>
CC1(C(=O)NCc2cc3cc(F)c(OCc4cscn4)cc3[nH]2)CC1 [Compound 8]

>  <System under test>
human SLC6A19 and TMEM27 (Homo sapiens)

>  <Readout name>
IC50

>  <Result value>
0.119

$$$$
>  <Molecule>
CC(C#N)C(=O)NCc1cc2cc(Cl)c(OCc3cscn3)cc2[nH]1 (racemic) [Compound 445]

>  <System under test>
human SLC6A19 and TMEM27 (Homo sapiens)

>  <Readout name>
IC50

>  <Result value>
0.444

$$$$

// next item, IC50 requested
INPUT: // lookup IC50 for COc1cc2cc(CNC(=O)C3(C)CC3)[nH]c2cc1CCn1nccn1 [Compound 591]
OUTPUT: 0.184

====

Target: human SLC6A19 and TMEM27 (Homo sapiens)
Construct: expressed in transfected cells
Sequence (Q695T7 1-634): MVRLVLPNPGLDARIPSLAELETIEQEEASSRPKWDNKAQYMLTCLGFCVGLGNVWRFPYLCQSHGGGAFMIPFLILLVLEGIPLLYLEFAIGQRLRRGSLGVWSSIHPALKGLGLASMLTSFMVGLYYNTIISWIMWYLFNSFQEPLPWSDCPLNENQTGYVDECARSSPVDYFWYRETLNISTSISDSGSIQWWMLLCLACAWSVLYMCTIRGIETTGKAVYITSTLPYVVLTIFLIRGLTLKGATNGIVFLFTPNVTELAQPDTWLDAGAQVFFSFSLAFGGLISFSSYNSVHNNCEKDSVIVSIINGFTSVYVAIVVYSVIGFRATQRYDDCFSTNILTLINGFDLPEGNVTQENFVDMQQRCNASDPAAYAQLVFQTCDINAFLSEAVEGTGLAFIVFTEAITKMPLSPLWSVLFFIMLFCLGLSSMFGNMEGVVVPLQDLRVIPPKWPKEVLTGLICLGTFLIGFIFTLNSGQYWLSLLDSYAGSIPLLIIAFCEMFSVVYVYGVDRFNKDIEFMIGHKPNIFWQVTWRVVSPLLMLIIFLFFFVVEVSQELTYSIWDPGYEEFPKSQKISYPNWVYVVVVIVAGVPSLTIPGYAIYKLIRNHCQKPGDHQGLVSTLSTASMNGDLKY
Sequence (Q9HBJ8 15-222 partner): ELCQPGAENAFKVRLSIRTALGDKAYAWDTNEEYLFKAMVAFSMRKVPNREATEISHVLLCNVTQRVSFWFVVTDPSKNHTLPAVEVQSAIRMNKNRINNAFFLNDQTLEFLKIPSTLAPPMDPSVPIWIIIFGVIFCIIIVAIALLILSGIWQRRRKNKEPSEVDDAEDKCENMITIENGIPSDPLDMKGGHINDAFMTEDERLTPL
Experiment: 13C6,15N-isoleucine uptake in CHO cells with doxycycline-inducible expression of human SLC6A19 and TMEM27, RapidFire mass spectrometry (Example B-2)
Format: cell-based
Conditions: read-out: SLC6A19_RapidFire Uptake Assay IC50
Readout name: pIC50
The value called pIC50 is obtained by taking minus log10 of the concentration in mol/L.

INPUT: Need pIC50 of CCC(=O)NCc1cc2cc(F)c(OCc3cc(C)no3)cc2[nH]1 [Compound 548] , thanks.
OUTPUT: 7.26

INPUT: Field request: pIC50 | item: O=C(NCc1cc2ccc(OCc3cncs3)cc2[nH]1)N1CCCC1 [Compound 106]
OUTPUT: 6.21

INPUT: Item under review: CC1(C(=O)NCc2cc3cc(Cl)c(Cc4ccon4)cc3[nH]2)CC1 [Compound 159] . Reported pIC50?
OUTPUT: 6.31

INPUT: // query pIC50 value for entry CC1(C(=O)NCc2cc3cc(Cl)c(OCc4cscn4)cc3[nH]2)CC1 [Compound 184]
OUTPUT: 7.23

INPUT: Could you share which pIC50 value was measured for Cc1cc(CCc2ccc3cc(CNC(=O)C4(C)CC4)[nH]c3c2)no1 [Compound 77] ?
OUTPUT: 6.45

INPUT: Report pIC50 for O=C(NCc1cc2ccc(OCc3cocn3)cc2[nH]1)N1CCCC1 [Compound 105] please.
OUTPUT: 6.19

INPUT: Which measured pIC50 value corresponds to O=C(NCc1cc2cc(Cl)c(NCc3ccon3)cc2[nH]1)N1CCCC1 [Compound 413] ?
OUTPUT: 6.62

INPUT: Form field: reported pIC50 of CC1(C(=O)NCc2cc3cc(Cl)c(OCCc4cscn4)cc3[nH]2)CC1 [Compound 67]
OUTPUT: 6.93

INPUT: Any idea what its pIC50 is? The compound is CNC(=O)NCc1cc2cc(F)c(OCc3cscn3)cc2[nH]1 [Compound 214]
OUTPUT: 6.71

INPUT: Item CC1(C(=O)NCc2cc3cc(Cl)c(OCc4cc(C5CC5)on4)cc3[nH]2)CC1 [Compound 100] has what recorded pIC50?
OUTPUT: 6.40

INPUT: Bench note: what pIC50 did CC1(C(=O)NCc2cc3ccc(OCc4c[nH]nn4)cc3[nH]2)CC1 [Compound 194] show?
OUTPUT: 5.31

INPUT: I am curious: what pIC50 value has been reported for CC1(C(=O)NCc2cc3c(F)cc(OCc4cscn4)cc3[nH]2)CC1 [Compound 29] ?
OUTPUT: 7.35

INPUT: Give the measured pIC50 of Cn1ncc(COc2cc3[nH]c(CNC(=O)N4CCCC4)cc3cc2Cl)n1 [Compound 406] .
OUTPUT: 6.76

INPUT: Field request: pIC50 | item: CC1(C(=O)NCc2cc3cc(F)c(CCc4ccon4)cc3[nH]2)CC1 [Compound 592]
OUTPUT: 7.03

INPUT: Returns the measured pIC50 for the input compound. Input: CC1(C(=O)NCc2[nH]c3cc(OCc4ccon4)ccc3c2Cl)CC1 [Compound 157]
OUTPUT: 7.37

INPUT: Query: pIC50; subject: CC1CCCN1C(=O)NCc1cc2cc(F)c(OCc3ccon3)cc2[nH]1 (stereo not drawn) [Compound 90]
OUTPUT: 5.92

Attribution: patent US20240199546A1
